# System: T1, human VISTA (human, UniProt Q9H7M9 33-194, limits assumed)
# T1 construct: The ELISA text says only recombinant VISTA; also called recombinant VISTA
# Experiment description: method not stated (Table 1, column Kd, M)
Assign Kd to each entry below.
Reply numerically in nM, unit not repeated.

Query INX916 | VSTB107 (antibody, V domains shown) VH: QVQLVQSGAEVKKPGSSVKVSCKASGGTFSSYAISWVRQAPGQGLEWMGGIIPIFGTANYAQKFQGRVTITADESTSTAYMELSSLRSEDTAVYYCARSSYGWSYEFDYWGQGTLVTVSS VL: DIQMTQSPSSLSASVGDRVTITCRASQSINNDLNWYQQKPGKAPKLLIYAASSLQSGVPSRFSGSGSGTDFTLTISSLQPEDFATYYCQQNRATPITFGQGTKVEIKR yields Kd of 0.089

Query INX906 | VSTB54 (antibody, V domains shown, INX name = the VSTB variable regions with human IgG2 constant regions) VH: QVQLVQSGAEVKKPGASVKVSCKASGYNIKDTYMHWVRQAPGQGLEWMGRIDPTHGYVIYDPKFQGRVTMTRDTSTSTVYMELSSLRSEDTAVYYCARDRFDPYWFLDVWGQGTLVTVSS VL: DIVMTQTPLSLSVTPGQPASISCRASESVEYYGTSLMQWYLQKPGQSPQLLIYDAFNVESGVPDRFSGSGSGTDFTLKISRVEAEDVGVYYCQQSRKVPWTFGQGTKLEIK yields Kd of 0.0253

Query VSTB105 (antibody, V domains shown) VH: QVQLVQSGAEVKKPGSSVKVSCKASGGTFSSYAISWVRQAPGQGLEWMGGIIPIFGTANYAQKFQGRVTITADESTSTAYMELSSLRSEDTAVYYCARSSYGWSYEFDYWGQGTLVTVSS VL: DIQMTQSPSSLSASVGDRVTITCRASQSIATNLNWYQQKPGKAPKLLIYAASSLQSGVPSRFSGSGSGTDFTLTISSLQPEDFATYYCQQNDDRPITFGQGTKVEIKR yields Kd of 0.115
